# reported IC50; entries follow
- assay system: cellular GLS activity (Homo sapiens (Human))
- Sequence (O94925 55-669): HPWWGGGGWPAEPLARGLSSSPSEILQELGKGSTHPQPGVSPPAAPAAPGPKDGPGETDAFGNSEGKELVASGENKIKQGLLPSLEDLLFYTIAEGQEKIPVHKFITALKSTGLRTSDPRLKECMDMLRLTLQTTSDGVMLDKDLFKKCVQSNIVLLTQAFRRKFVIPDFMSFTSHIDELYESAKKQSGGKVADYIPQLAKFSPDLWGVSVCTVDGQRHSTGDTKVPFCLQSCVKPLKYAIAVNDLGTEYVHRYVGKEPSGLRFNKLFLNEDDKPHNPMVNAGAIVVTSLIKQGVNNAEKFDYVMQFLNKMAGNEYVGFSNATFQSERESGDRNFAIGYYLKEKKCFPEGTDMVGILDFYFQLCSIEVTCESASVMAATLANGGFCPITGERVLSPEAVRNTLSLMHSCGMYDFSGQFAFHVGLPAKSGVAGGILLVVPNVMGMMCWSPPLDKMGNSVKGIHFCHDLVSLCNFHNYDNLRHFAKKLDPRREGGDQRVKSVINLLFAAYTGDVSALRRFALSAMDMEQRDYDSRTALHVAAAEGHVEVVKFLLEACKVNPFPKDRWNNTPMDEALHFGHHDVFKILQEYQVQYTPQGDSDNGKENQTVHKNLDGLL
- assay info: GLS Cell Potency Assay (PC3 coupled assay measuring cellular glutamate depletion)
- condition description: PC3 cells, 6 h incubation, cellular glutamate depletion; geometric mean where repeated; read-out: Assay b) GLS Cell Potency Assay IC50
reported metric: IC50 (µM)

>>> df
                                   compound  reported_metric  units_label  reported_value
0  CCO[C@H](C(=O)Nc1nnc(N[C@@H]2CCN(c3nccnn3)C2)s1)c1ccc(F)cc1             IC50           µM           0.337
1  CO[C@H](C(=O)Nc1nnc(N[C@@H]2CCN(c3cccnn3)C2)s1)c1cccc(OC(F)(F)F)c1             IC50           µM         0.00014
2  CCO[C@@H](C(=O)Nc1nnc(N[C@@H]2CCN(c3cccnn3)C2)s1)c1ccc(F)cc1             IC50           µM           0.014
3  COc1ccc([C@@H](OC)C(=O)Nc2nnc(N[C@@H]3CCN(c4cccnn4)C3)s2)cc1OC             IC50           µM          0.0561
4  CO[C@@H](C(=O)Nc1nnc(N[C@@H]2CCN(c3nccnn3)C2)s1)c1cccc(OC(F)F)c1 [Example 6(b)]             IC50           µM           0.037
5  COc1cccc([C@H](OC)C(=O)Nc2nnc(N[C@@H]3CCN(c4nccnn4)C3)s2)c1             IC50           µM         0.00151
6  CCO[C@@H](C(=O)Nc1nnc(N[C@@H]2CCN(c3nccnn3)C2)s1)c1ccc(F)c(OC)c1             IC50           µM            0.69
7  CCO[C@H](C(=O)Nc1nnc(N[C@@H]2CCN(c3nccnn3)C2)s1)c1ccc(F)c(OC)c1             IC50           µM         0.00713

---

Read-out record for UniProtKB O94925: IC50
reported metric: IC50 (nM)

>>> print(df.to_string())
                                   compound  reported_value
0  CO[C@@H](C(=O)Nc1nnc(N[C@@H]2CCN(c3nccnn3)C2)s1)c1cccc(OC(F)F)c1 [Example 6(b)]             519
1  CCO[C@H](C(=O)Nc1nnc(N[C@@H]2CCN(c3cccnn3)C2)s1)c1ccc(F)c(OC)c1            50.2
2  COc1ccc([C@H](OC)C(=O)Nc2nnc(N[C@@H]3CCN(c4cccnn4)C3)s2)cc1OC            35.4
3  CO[C@@H](C(=O)Nc1nnc(N[C@@H]2CCN(c3nccnn3)C2)s1)c1cccc(OC(F)F)c1 [19(b)]             519
4  CCO[C@H](C(=O)Nc1nnc(N[C@@H]2CCN(c3nccnn3)C2)s1)c1cccc(OC)c1            50.8
5  COc1ccc([C@H](OC)C(=O)Nc2nnc(N[C@@H]3CCN(c4cccnn4)C3)s2)cc1              31
6  COc1cccc([C@@H](OC)C(=O)Nc2nnc(N[C@@H]3CCN(c4cccnn4)C3)s2)c1            87.9
7  COc1cccc([C@H](OC)C(=O)Nc2nnc(N[C@@H]3CCN(c4cccnn4)C3)s2)c1            21.5

---

# key: entry, value: IC50
- assay system: GLS1 (Homo sapiens (Human), UniProt O94925)
- Sequence (O94925 63-669): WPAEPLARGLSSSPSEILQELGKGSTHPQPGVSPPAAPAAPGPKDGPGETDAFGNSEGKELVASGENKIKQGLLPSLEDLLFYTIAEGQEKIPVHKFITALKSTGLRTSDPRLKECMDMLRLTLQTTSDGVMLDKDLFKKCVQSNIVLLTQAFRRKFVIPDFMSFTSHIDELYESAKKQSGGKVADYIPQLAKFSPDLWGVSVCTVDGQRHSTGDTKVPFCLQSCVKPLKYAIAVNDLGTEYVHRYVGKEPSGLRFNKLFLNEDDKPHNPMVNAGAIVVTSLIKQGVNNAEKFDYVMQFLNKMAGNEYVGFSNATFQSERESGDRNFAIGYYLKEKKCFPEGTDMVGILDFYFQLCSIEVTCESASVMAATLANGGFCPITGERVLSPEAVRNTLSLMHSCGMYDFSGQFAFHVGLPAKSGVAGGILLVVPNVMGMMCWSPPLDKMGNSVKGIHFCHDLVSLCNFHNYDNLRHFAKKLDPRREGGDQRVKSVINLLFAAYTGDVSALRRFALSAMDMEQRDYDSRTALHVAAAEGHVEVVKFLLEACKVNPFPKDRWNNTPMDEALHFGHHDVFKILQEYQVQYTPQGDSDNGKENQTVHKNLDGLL
- assay info: GLS Enzyme Potency Assay (Glutamate Oxidase/AmplexRed coupled assay)
- Assay type: biochemical
- condition description: 6His tagged GLS protein (amino acids 63-669); geometric mean where repeated
reported metric: IC50 (nM)

In [3]: df
Out[3]:
                              record_smiles  reported_metric  reported_value
0  CCO[C@@H](C(=O)Nc1nnc(N[C@@H]2CCN(c3cccnn3)C2)s1)c1ccc(F)cc1             IC50             170
1  COc1ccc([C@@H](OC)C(=O)Nc2nnc(N[C@@H]3CCN(c4cccnn4)C3)s2)cc1OC             IC50             135
2  CO[C@H](C(=O)Nc1nnc(N[C@@H]2CCN(c3cncnn3)C2)s1)c1ccccc1             IC50              29
3  CO[C@H](C(=O)Nc1nnc(N[C@@H]2CCN(c3cccnn3)C2)s1)c1cccc(OC(F)(F)F)c1             IC50            18.6
4  COc1cccc([C@@H](OC)C(=O)Nc2nnc(N[C@@H]3CCN(c4nccnn4)C3)s2)c1             IC50             908
5  COc1cc([C@@H](OC)C(=O)Nc2nnc(N[C@@H]3CCN(c4cccnn4)C3)s2)ccc1F             IC50             168
